Origin of the recorded values: PubChem BioAssay AID651820

assay: qHTS Assay for Inhibitors of Hepatitis C Virus (HCV); conditions: Huh7.5.1 HCVcc-Cre infection, luciferase reporter, 44 h; series mostly up to 41.8 µM
Screen size: about 340,000 compounds; about 12,000 (3.5%) were called active. About 18% were inconclusive and are not listed. Calls follow the shape of the dose curve; as a rule, active = well fitted inhibition curve with a large enough effect; inconclusive = small, poorly fitted or top-dose-only effect, or another doubt; inactive = no such curve, though single readings can be large or run the other way. This excerpt belongs to a sample that is enriched for actives.
Classes used: active, inactive

>>> print(df.to_string())
                                    compound     label
 0      CN(C)CCCNC(=O)c1ccc2[nH]c3ccccc3c2c1  inactive
 1  Nc1cc(N)nc(SCC(=O)Nc2cccc(S(=O)(=O)N3CCCCC3)c2)n1  inactive
 2  COCCn1cnnc1SCC(=O)Nc1cccc(S(=O)(=O)N2CCCCC2)c1  inactive
 3  Cc1cccc(-n2ncc3c(=O)[nH]c(SCC(=O)Nc4cc(C)on4)nc32)c1  inactive
 4  CC(=O)N(O)CCCCCNC(=O)CCC(=O)N(O)CCCCCNC(=O)CCC(=O)N(O)CCCCCNC(=O)CCC(=O)O  inactive
 5  COc1cccc(CC(=O)OCC(=O)NCc2ccc3c(c2)OCO3)c1  inactive
 6  CN(c1ccc(C(=O)N2CCc3ccccc3C2)cc1)S(C)(=O)=O  inactive
 7  CN1CCc2ccccc2C1Cc1ccccc1NC(=O)c1sc2ccccc2c1Cl (stereo unspecified)    active
 8  O=C(CSc1nc(-c2ccccc2)cs1)Nc1cccc([N+](=O)[O-])c1    active
 9  Cc1cc(C)c(C)c(S(=O)(=O)N2CCN(C(=O)c3ccc4c(=O)n5c(nc4c3)CCC5)CC2)c1C  inactive
10  O=C(c1ccc(Cl)s1)N(Cc1nnc(-c2ccccc2Cl)o1)C1CC1  inactive
11  CN(C(=O)CSc1nnc(-c2ccc(C(C)(C)C)cc2)n1C)C1CCS(=O)(=O)C1 (stereo unspecified)  inactive
12  O=C(OCCN1C(=O)c2ccccc2C1=O)[C@@H]1CC(O)CN1S(=O)(=O)c1ccccc1[N+](=O)[O-] (stereo partly specified)  inactive
13  O=C(CSCC(=O)Nc1cccc([N+](=O)[O-])c1)Nc1ccccc1  inactive
14  COc1ccc(NC(=O)CCNC(=O)Cn2cnc3sc4c(c3c2=O)CCCC4)cc1OC  inactive
15  Cc1ccc(N(CC(=O)Nc2cccc(N(C)S(C)(=O)=O)c2)S(C)(=O)=O)cc1  inactive
16               CCc1ccccc1NC(=O)NCCN1CCCCC1  inactive
17              CCNC(=O)CSc1nc(-c2ccccc2)cs1  inactive
18  COc1ccc(CNC(=O)CN2C(=O)c3ccccc3S2(=O)=O)cc1  inactive
19  Cn1nnnc1SCC(=O)Nc1cccc(S(=O)(=O)N2CCCCC2)c1  inactive
20  CC(C)(C)OC(=O)N[C@H](C(=O)OC(C)(C)C)c1ccc(Br)cc1  inactive

###

experiment: qHTS Assay for Inhibitors of Hepatitis C Virus (HCV); settings: Huh7.5.1 HCVcc-Cre infection, luciferase reporter, 44 h; series mostly up to 41.8 µM
The whole screen tested about 340,000 compounds, of which about 12,000 (3.5%) were called active. About 18% were inconclusive and are not listed. Calls follow the shape of the dose curve; as a rule, active = well fitted inhibition curve with a large enough effect; inconclusive = small, poorly fitted or top-dose-only effect, or another doubt; inactive = no such curve, though single readings can be large or run the other way. This is one part of a sample in which actives are shown more often than they occur.
Labels: class 1 (active), class 0 (inactive)

In [3]: df
Out[3]:
                                    compound    label
 0  CCN(C(=O)COC(=O)c1sccc1C)c1c(N)n(Cc2ccccc2)c(=O)[nH]c1=O  class 0
 1  Cc1oc2c(c1C(=O)N1CCOCC1)C(=O)c1ccccc1C2=O  class 1
 2         CCCOc1ccc(Cc2c(Cl)nc(SC)nc2NC)cc1  class 1
 3      CCCOc1ccc(Cc2c(O)nc(SC)[nH]c2=O)cc1C  class 0
 4  O=C(Nc1cc(-c2nn(CC(=O)N3CCCCC3)c(=O)c3ccccc23)ccc1N1CCOCC1)c1ccc(Cl)cc1  class 0
 5  O=C(Nc1ccc(N2CCN(C(=O)c3ccccc3)CC2)c(Cl)c1)c1ncn[nH]1  class 0
 6  O=c1[nH]c(N2CCN(Cc3ccc4c(c3)OCO4)CC2)nc2c1CCCC2  class 0
 7         Fc1ccc2[nH]c3c(N4CCSCC4)ncnc3c2c1  class 1
 8  CCCN(C(=O)CSc1nnc(N)s1)c1c(N)n(Cc2ccccc2)c(=O)[nH]c1=O  class 0
 9  CC1(C)CC(=O)C=C(c2ccc(Cl)c(C(F)(F)F)c2)C1  class 0
10  C=CC1C(OC2OC(CO)C(O)C(O)C2O)OC=C(C(=O)OC)C1CC1CC(=O)CC(CC(=O)CCc2ccc(O)cc2)O1 (stereo unspecified)  class 0
11  COc1ccccc1N(CC(=O)N/N=C(\C)c1ccccc1O)S(=O)(=O)c1ccc(C)cc1  class 1
12      Oc1ccc(/C=N/Nc2ccc(C(F)(F)F)cn2)cc1O  class 1
13  COc1ccccc1N(CC(=O)Nc1c(C)n(C)n(-c2ccccc2)c1=O)S(=O)(=O)c1ccccc1  class 0
14          Cc1ccccc1N1CCN(C(=O)c2cccnc2)CC1  class 0
15  CC(C)(C)c1ccc(S(=O)(=O)N2CCN(C(=O)c3ccc4c(c3)C(=O)N(Cc3ccncc3)C4=O)CC2)cc1  class 0
16  O=C(Nc1cc(Cl)ccc1N1CCOCC1)c1ccc(N2CCCC2=O)cc1  class 1
17  COc1ccc(S(=O)(=O)N2CCN(CC(=O)N3c4ccccc4CC3C)CC2)cc1OC (stereo unspecified)  class 0
18  CC1CCCCC1NC(=O)Cn1cnc2c1c(=O)n(C)c(=O)n2C (stereo unspecified)  class 0
19                  Cc1noc(C)c1C(=O)N1CCOCC1  class 0
20  COc1ccc(S(=O)(=O)N(CC(=O)N/N=C/c2ccccc2C(=O)O)c2ccccc2OC)cc1  class 0
